Each entry below carries its recorded INHIBITION.
System: Plasmodium berghei
Test Summary: Screen against P. berghei liver stage (PbLuc), transformed with Luciferase, at 10uM
Assay type: functional, HepG2
Experimental Conditions: tested at 10 uM
The campaign covered roughly 69,000 compounds. About 8,600 (12%) showed an effect of 50% or more. The entries come from a sample that favours strong results as a whole.
Outcome Measure: INHIBITION (%)

- Cc1csc(Nc2cc(C3CN(c4ccncn4)C3)nc(C)n2)n1: 68.4
- CN(Cc1ccccc1C(F)(F)F)C(C(N)=O)c1ccccc1 (configuration not stated): 36.3
- CN(Cc1ccccc1Cl)C(C(=O)O)c1ccc(F)c(CO)c1 (configuration not stated): 63.8
- Cc1cc(C)c2nc(CN3CCOCC(O)C3)cc(O)c2c1 (configuration not stated): 17.6
- CS(=O)(=O)N1C[C@@H]2CCN(C(=O)c3cscn3)[C@@H]2C1: 31.5
- Nc1cc(-c2cccs2)nn(CC(=O)NCC2CCCCC2)c1=O: 6.32
- COCCN(C)C(C)c1cccc(S(N)(=O)=O)c1 (configuration not stated): -29.8
- Cc1csc(Nc2cc(C3CN(C(C)C)C3)nc(C)n2)n1: 37.8
- Cc1ccccc1CN(C)C(C(N)=O)c1ccccc1 (configuration not stated): 43.1
- CN1CCOC(CNCc2ccccc2OCc2ccccn2)C1 (configuration not stated): -10.193
- Cc1cc(C)c2nc(CN3CCC(CN)C3)cc(O)c2c1 (configuration not stated): -8.75
- CC(C)CS(=O)(=O)NC(=O)c1ccc2c(c1)ncn2C: -57.9

* * *

// values below are reported INHIBITION
Tested on: Plasmodium berghei
Test Summary: Screen against P. berghei liver stage (PbLuc), transformed with Luciferase, at 10uM
Type: functional, HepG2
Experimental Conditions: tested at 10 uM
The campaign covered roughly 69,000 compounds. About 8,600 (12%) showed an effect of 50% or more. Only a selection was taken, and strong results are over-represented in it overall.
Outcome Measure: INHIBITION (%)

- Cc1ccc(NCCCNC(=O)C2CC3(CCNCC3)CN2C)nc1 (stereo unspecified): 37.1
- c1ccc(CCN2CCN(c3ncnc4[nH]ccc34)CC2)cc1: 33
- O=C(CCc1ccccn1)N1CCCC1: -8.11
- COc1ccc2nc(CNC(=O)C3CC4(CCNCC4)CN3C)[nH]c2c1 (stereo unspecified): 18.6
- Cc1cccc(N2CC3(CCN(S(=O)(=O)C4CC4)C3)C2)n1: 34.6
- c1ccc(CCCN2CCCN(c3ncnc4[nH]ccc34)CC2)cc1: 52.7

* * *

System: Plasmodium berghei
Test Summary: Screen against P. berghei liver stage (PbLuc), transformed with Luciferase, at 10uM
Assay type: functional, HepG2
Experimental Conditions: tested at 10 uM
Among all 69,000 compounds or so, about 8,600 (12%) showed an effect of 50% or more. The list comes from a sample in which strong results are over-represented; it also holds close analogues and randomly drawn compounds.
Outcome Measure: INHIBITION

- Cn1cccc1C(=O)N1CCCC2(CCN(CCN3CCCC3)C2=O)C1 (centres undefined): -14.9%
- Cc1occc1C(=O)N1CCCC2(CCN(CCN3CCCC3)C2=O)C1 (centres undefined): 23.5%
- COc1ccc(OC)c(C(=O)N2CCCCC2Cn2cccn2)c1 (centres undefined): 14.4%
- O=C(Cc1cccs1)N1CCc2nnc(COc3cncnc3)n2CC1: 47.5%
- CCOCCCNC(=O)C1(C)CCC(=O)N1c1cc(OC)ccc1OC (centres undefined): 28.3%
- Cn1nc(C#N)c2c1CN(C(=O)c1cccnc1)CCC2: 9.3%
- CCc1ccc(O)c(C(=O)N2CCCN(CC(=O)N(CC)CC)CC2)c1: -1.57%
- O=C(Cc1ccsc1)N1C[C@@H]2COC[C@]2(COc2cccnc2)C1: 39.4%
- O=C(c1ccoc1)N1CCC2(C1)CN(c1ncc(F)cn1)C2: -0.813%
- COc1cccc(CN2CCCC3(CCN(C(=O)[C@H]4CCCO4)C3)C2)c1 (some centres undefined): 13.2%
- O=C(c1ccco1)N1CCCC2(CCN(CCN3CCCC3)C2=O)C1 (centres undefined): 58.5%
- CC(NC(=O)NCC(F)(F)F)c1nncn1C (centres undefined): 11.5%
- O=C(c1ccsc1)N1CCc2ncc(Cn3cncn3)n2CC1: 62.5%
- COc1ccc(C(=O)N2CCCS2(=O)=O)cc1: -11.4%
- O=C(c1cccs1)N1CCc2ncc(Cn3cncn3)n2CC1: 22.9%
- Cc1cc(C(=O)N2CC[C@@H]3CN(S(C)(=O)=O)CCO[C@@H]3C2)c(C)o1: 37%
- COc1cccc(CN2CCCC3(CCN(C(=O)N4CCCC4)C3)C2)c1 (centres undefined): 8.74%
- CS(=O)(=O)c1ccc(Cl)c(C(=O)NCCC2=CCCCC2)c1: -19.2%
- CN(Cc1ccco1)C(=O)C1=NN(C)C(=O)CC1: -14.3%
- O=C(c1cscn1)N1CCc2ncc(Cn3cncn3)n2CC1: 38.1%
- CS(=O)(=O)NCc1cn2c(n1)CN(Cc1cccnc1)CC2: -12.2%
- CCCn1cc(CN2CCCC2c2nccc(CN(C)C)n2)cn1 (centres undefined): 25.6%
- O=C1CCN(C(=O)c2ncoc2-c2ccco2)c2ncccc2N1: 15.1%
- O=C(c1cccs1)N1CCc2nnc(COc3cncnc3)n2CC1: 28.2%

* * *

Tested on: Plasmodium berghei
Test Summary: Screen against P. berghei liver stage (PbLuc), transformed with Luciferase, at 10uM
Assay type: functional, HepG2
Experimental Conditions: tested at 10 uM
Out of some 69,000 compounds screened, about 8,600 (12%) showed an effect of 50% or more. What follows is part of a selection rich in strong results, with near analogues and random picks from the rest.
# reported INHIBITION; entries follow
Outcome Measure: INHIBITION (%)

- COc1cccc(CSCC(=O)NCc2cccnc2)c1: 54.5
- O=C1CCNc2ncc(-c3cccc(Cl)c3)cc2CN1C1CC1: 2.55
- CCn1cc(C(=O)NCCc2nc(-c3ccc(C)cc3)n[nH]2)c(C)n1: 12.8
- CC(=O)Nc1c(C)noc1C=Cc1ccc(S(=O)(=O)NC2CC2)cc1: 47.2
- Cc1ccc(-c2nc(CCNC(=O)NC3CCC(O)CC3)co2)cc1 (stereo not given): 68.8
- Cc1nc2c(C)cccc2cc1C(=O)N1CCC2(CCNCC2)CC1: 47.7
- CCSc1cccc(NCc2cccnc2)c1: 85.2
- Cc1cc2ccccc2n1CCC(=O)NCCCc1nnc(N)s1: 0.426
- O=C(CCC(=O)N1CCCC1c1ccsc1)N1CCOCC1 (stereo not given): 7.24
- COc1c(C)cnc(CNCC(C)C)c1C: 11.95
- CC(C)(CN1CCC2(CCNCC2)CC1)N1CCOCC1: -22.1
- COc1ccc(C(=O)NS(=O)(=O)c2cncc(Br)c2)cc1: -2.48
- CCc1cnc(C)nc1NC1CC(=O)N(CC)C1 (stereo not given): 14.9
- COc1ccc(-c2nc(CCNC(=O)NC3CCC(O)CC3)co2)cc1 (stereo not given): 50.6
- COc1nccnc1N1CCCC2(C1)C(=O)N(C)c1ccccc12 (stereo not given): -60.7
- Cc1nc(C)n(CC2CCCN2CC(=O)Nc2cccnc2)n1 (stereo not given): -6.39
- O=C(NCCc1coc(-c2ccc(F)cc2)n1)NC1CCC(O)CC1 (stereo not given): 54.6
- O=C(NCCc1coc(-c2ccc(F)cc2)n1)NCC1CCOC1 (stereo not given): 13.8
- O=C(NCCc1coc(-c2ccccc2)n1)NC1CC1: 44.1
- CC(=O)NCc1ccc(C(=O)N2CCCC2c2c(C)nn(C)c2C)o1 (stereo not given): -55.4
- Cc1nc(CN2CCOCC2c2[nH]ncc2C)cs1 (stereo not given): 8.335
- COc1ccc(-c2nc(CCNC(=O)NCC3CCOC3)co2)cc1 (stereo not given): 1.04
- CCSCc1cccc(NCc2cccnc2)c1: 61.6
- Cc1ccc(C2COCCN2C(=O)c2cccc(N(C)C)c2)o1 (stereo not given): 32.9
- O=C1CCNc2ncc(-c3ccc(Cl)cc3)cc2CN1C1CC1: 7.85

* * *

System: Plasmodium berghei
Test Summary: Screen against P. berghei liver stage (PbLuc), transformed with Luciferase, at 10uM
Format: functional, HepG2
Experimental Conditions: tested at 10 uM
Among all 69,000 compounds or so, about 8,600 (12%) showed an effect of 50% or more. Shown is part of a subset that was picked to be rich in strong results.
Outcome Measure: INHIBITION (%)

- CCCS(=O)(=O)N1CCN(CCOC)c2nc(C)ccc2C1: 29.8
- Cc1ccc2c(n1)N(CC1CC1)CCN(S(=O)(=O)C1CC1)C2: -63.5
- Cc1ccc(N2C[C@@H]3OCCN(CC4CC4)[C@@H]3C2)nn1: 35.5
- COc1cc(N2CC[C@@H]3[C@@H](CC2)OCCN3CC2CC2)ncn1: 81
- O=C1OC2(CCN(C(=O)C3NCCc4[nH]cnc43)CC2)c2ccccc21 (stereo not drawn): 23.5
- O=C(O)c1cn(CC2CCCN(c3cnc4ccccc4n3)C2)nn1 (stereo not drawn): 6.24
- COCCCN1CCCN(C(C)C(=O)Nc2ccnn2C(C)C)CC1 (stereo not drawn): 0.139
- CCC(=O)NCCNC(=O)c1nn(C)c(C)c1Cl: -23
- COCCCN1CCCN(C(C)C(=O)Nc2cccc(I)c2)CC1 (stereo not drawn): 85.1
- Cc1c(Cl)c(C(=O)NCc2ccc(F)cc2)nn1C: -6.18
- CCn1ncc2c1CCCC2NCc1cc(OC)cc(OC)c1 (stereo not drawn): 37.9
- Cc1c(Cl)c(C(=O)NN2CCOCC2)nn1C: 55.7
- O=C(CCc1cc2n(n1)CCCNC2)N1CCC(N2CCOC2=O)CC1: -39.2
- Cc1nn(C)c(C)c1C(=O)NN1CCOCC1: 62.3
- CC(C)(C)c1cn(CC2CCCN(c3cnc4ccccc4n3)C2)nn1 (stereo not drawn): 89.6
- Cc1n[nH]c(CN2CCN(C(=O)C3CCC3)[C@@H]3CS(=O)(=O)C[C@@H]32)n1: -2.79
- Fc1ccc(CN2CCC(F)(F)C3(CCN(c4cnccn4)C3)C2)cc1 (stereo not drawn): 1.61
- O=C(C1NCCc2[nH]cnc21)N1CCC2(C=Cc3ccccc32)CC1 (stereo not drawn): 53
- Cc1c(Cl)c(C(=O)NC(C)CN2CCOCC2)nn1C (stereo not drawn): 54.9
- Cc1ccc(N2CCC3(CN(Cc4cccs4)CCC3(F)F)C2)nn1 (stereo not drawn): 61.3
- Cc1ccc(N2CCC3(CN(CCO)CCC3(F)F)C2)nn1 (stereo not drawn): 39.5
- Cc1cc(C(=O)NCc2c(C)nn(C)c2C)nc(N2CCOCC2)n1: 12.9
- CN(C)S(=O)(=O)N1CC[C@H]2OCC[C@@]2(COc2cccnc2)C1: 33

The reported measurements were obtained from ChEMBL document CHEMBL4513216.
